Subject of test: T1, 4H428-AA
T1 chain: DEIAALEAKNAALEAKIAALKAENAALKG
Assay overview: two-hybrid library CCmax;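 also: natural log of median RNA to DNA barcode read ratio; higher means stronger binding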
Test settings: mean of both orientations
This section presents binders with their documented interaction score values.
Lab note: write the figure by itself, no unit.

# query: interaction score of entry DKNAALEAEIAALEAENAALKAKIAALKG [4H3102-AA]
0.651

Then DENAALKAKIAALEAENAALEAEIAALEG [4H1809-AA] ?
-0.837

Then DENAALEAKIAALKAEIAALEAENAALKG [4H1348-AA] ?
-0.542

Then DKNAALKAKIAALKAKIAALEAENAALEG [4H3939-AA] ?
-1.64
